tested on: UACC-62; experiment: Antiproliferative activity against human UACC-62 cells assessed as cell growth at 10 uM incubated for 48 hrs by sulforhodamine B assay relative to control; assay type: functional; conditions: read-out: Activity
assay metric: growth at 10 µM
Include the unit right after the number.

Solved cases below.
CC(=O)c1c(C)n(-c2ccccc2)c2c1c(-c1ccc(C)o1)nc1ccccc12 :: 85.1%
CC(=O)c1c(C)n(C)c2c1c(-c1ccccc1)nc1ccccc12 :: 87.8%

Can you look up the measured growth at 10 µM of CC(=O)c1c(C)n(-c2ccccc2)c2c1c(-c1ccccc1)nc1ccccc12 for me?
70.4%

# input compound: CC(=O)c1c(C)[nH]c2c1c(-c1ccccc1)nc1ccccc12 ; wanted: its growth at 10 µM
62.4%

Give the measured growth at 10 µM of CCOC(=O)c1c(C)n(-c2ccccc2)c2c1c(-c1ccccc1)nc1ccccc12 .
74.7%

Can you look up the measured growth at 10 µM of CCn1c(C)c(C(C)=O)c2c(-c3ccccc3)nc3ccccc3c21 for me?
88.9%

----------
system: ACHN; experiment: Antiproliferative activity against human ACHN cells assessed as cell growth at 10 uM incubated for 48 hrs by sulforhodamine B assay relative to control; format: functional; conditions: read-out: Activity
Documented growth at 10 µM across a set of compounds
Dear colleague, please return just the value in %, with no unit written.

// below: answered compounds
CC(=O)c1c(C)n(CCCCl)c2c1c(-c1ccc3c(c1)OCO3)nc1ccccc12 :: 84.4
CC(=O)c1c(C)[nH]c2c1c(-c1cc3c(cc1Br)OCO3)nc1ccccc12 :: 93
CC(=O)c1c(C)[nH]c2c1c(-c1cc(Cl)cc(Cl)c1O)nc1ccccc12 :: 71.2

Moving on to another compound below.
Need growth at 10 µM of CC(=O)c1c(C)[nH]c2c1c(-c1ccc3c(c1)OCO3)nc1ccccc12 , thanks.
92.4

----------
tested on: SNB-75; test: Antiproliferative activity against human SNB-75 cells assessed as cell growth at 10 uM incubated for 48 hrs by sulforhodamine B assay relative to control; format: functional; settings: read-out: Activity
assay metric: growth at 10 µM (%)
The response must be a number in % with no trailing unit.

CC(=O)c1c(C)[nH]c2c1c(-c1cc3c(cc1Br)OCO3)nc1ccccc12 :: 84
CC(=O)c1c(C)[nH]c2c1c(-c1ccc3c(c1)OCO3)nc1ccccc12 :: 46.5
CCn1c(C)c(C(C)=O)c2c(-c3ccccc3)nc3ccccc3c21 :: 85.1

Provide value of growth at 10 µM for this record tested with SNB-75: CC(=O)c1c(C)[nH]c2c1c(-c1ccccc1)nc1ccccc12
42.3

----------
assay: Growth inhibition of human MCF-10A cells at 10 uM incubated for 24 hrs by cell counter analysis relative to control; format: toxicity, cell-based; conditions: read-out: GI
assay metric: inhibition at 24 h, 10 µM (%)
The reply should contain only the number, in %.

Can you share its inhibition at 24 h, 10 µM? I mean this compound: CC(=O)c1c(C)[nH]c2c1c(-c1ccc3c(c1)OCO3)nc1ccccc12
14

----------
experiment: Growth inhibition of human MCF-10A cells at 10 uM incubated for 72 hrs by cell counter analysis relative to control; format: toxicity, cell-based; details: read-out: GI
assay metric: inhibition at 72 h, 10 µM (%)
Give the value, in units of %, as a plain number.

So what does the record say about inhibition at 72 h, 10 µM for CC(=O)c1c(C)[nH]c2c1c(-c1ccc3c(c1)OCO3)nc1ccccc12 ?
11

----------
test: Antiproliferative activity against human 16HBE14o- cells assessed as inhibition of cell growth incubated for 4 hrs by MTS assay; type: toxicity, cell-based; conditions: read-out: IG50
# Lookup of reported GI50 at 4 h keyed by entry
Give just the number in µM; leave the unit off.

CC(=O)c1c(C)[nH]c2c1c(-c1ccccc1)nc1ccccc12 :: 10

Query molecule follows.
# get_value(readout='GI50 at 4 h', item= CCn1c(C)c(C(C)=O)c2c(-c3ccccc3)nc3ccccc3c21 )
10

----------
tested on: HCT-15; experiment: Antiproliferative activity against human HCT-15 cells assessed as cell growth at 10 uM incubated for 48 hrs by sulforhodamine B assay relative to control; type: functional; conditions: read-out: Activity
assay metric: growth at 10 µM (%)
Write it as a number; the unit % goes unstated.

CC(=O)c1c(C)[nH]c2c1c(-c1ccc3c(c1)OCO3)nc1ccccc12 :: 69.5
CC(=O)c1c(C)[nH]c2c1c(-c1cc(Cl)cc(Cl)c1O)nc1ccccc12 :: 73.1
CC(=O)c1c(C)n(CCCCl)c2c1c(-c1ccc3c(c1)OCO3)nc1ccccc12 :: 87

As a next step, examine the molecule that follows.
Form field - read-out: growth at 10 µM; system: HCT-15; submitted item: CC(=O)c1c(C)[nH]c2c1c(-c1cc3c(cc1Br)OCO3)nc1ccccc12
97.2

----------
test system: MDA-MB-468; test: Antiproliferative activity against human MDA-MB-468 cells assessed as cell growth at 10 uM incubated for 48 hrs by sulforhodamine B assay relative to control; format: functional; settings: read-out: Activity
The entries below come with measured growth at 10 µM values attached.
Please respond with the number in % and leave the unit unwritten.

A selection of reference data follows.
CC(=O)c1c(C)[nH]c2c1c(-c1cc3c(cc1Br)OCO3)nc1ccccc12 :: 109
CC(=O)c1c(C)n(CCCCl)c2c1c(-c1ccc3c(c1)OCO3)nc1ccccc12 :: 101
CC(=O)c1c(C)[nH]c2c1c(-c1cc(Cl)cc(Cl)c1O)nc1ccccc12 :: 89.7

Endpoint output: growth at 10 µM of CC(=O)c1c(C)[nH]c2c1c(-c1ccc3c(c1)OCO3)nc1ccccc12 . Value?
59.5

----------
growth at 10 µM values by entry
system: MOLT-4; test: Antiproliferative activity against human MOLT-4 cells assessed as cell growth at 10 uM incubated for 48 hrs by sulforhodamine B assay relative to control; assay type: functional; conditions: read-out: Activity

These recorded examples may help you get a feel for the data.
CC(=O)c1c(C)[nH]c2c1c(-c1cc(Cl)cc(Cl)c1O)nc1ccccc12 :: 51.6%
CCn1c(C)c(C(C)=O)c2c(-c3ccccc3)nc3ccccc3c21 :: 95.2%
CC(=O)c1c(C)n(-c2ccccc2)c2c1c(-c1ccccc1)nc1ccccc12 :: 77.6%
CC(=O)c1c(C)n(CCCCl)c2c1c(-c1ccc3c(c1)OCO3)nc1ccccc12 :: 67.3%
CC(=O)c1c(C)[nH]c2c1c(-c1ccccc1)nc1ccccc12 :: 106%

Item under review: CC(=O)c1c(C)n(C)c2c1c(-c1ccccc1)nc1ccccc12 . Reported growth at 10 µM?
89.4%

Look at this compound and give its reported growth at 10 µM. CC(=O)c1c(C)[nH]c2c1c(-c1ccc3c(c1)OCO3)nc1ccccc12
107%

Using the record for CCOC(=O)c1c(C)n(-c2ccccc2)c2c1c(-c1ccccc1)nc1ccccc12 , report its growth at 10 µM.
84.3%

What does the record list as growth at 10 µM for CC(=O)c1c(C)n(-c2ccccc2)c2c1c(-c1ccc(C)o1)nc1ccccc12 ?
76.7%

Which growth at 10 µM value belongs to CC(=O)c1c(C)[nH]c2c1c(-c1cc3c(cc1Br)OCO3)nc1ccccc12 ?
83.8%

----------
tested on: HCT-116; assay: Antiproliferative activity against human HCT-116 cells assessed as cell growth at 10 uM incubated for 48 hrs by sulforhodamine B assay relative to control; format: functional; settings: read-out: Activity
Entries and their growth at 10 µM
Please reply with the bare figure in % and do not write the unit itself.

CC(=O)c1c(C)[nH]c2c1c(-c1cc3c(cc1Br)OCO3)nc1ccccc12 :: 98.9

Using the record for CC(=O)c1c(C)[nH]c2c1c(-c1cc(Cl)cc(Cl)c1O)nc1ccccc12 , report its growth at 10 µM.
75.2

Request the reported growth at 10 µM associated with CC(=O)c1c(C)n(CCCCl)c2c1c(-c1ccc3c(c1)OCO3)nc1ccccc12
93.6

Item CC(=O)c1c(C)[nH]c2c1c(-c1ccc3c(c1)OCO3)nc1ccccc12 has what recorded growth at 10 µM?
84.3

----------
test system: HOP-62; experiment: Antiproliferative activity against human HOP-62 cells assessed as cell growth at 10 uM incubated for 48 hrs by sulforhodamine B assay relative to control; format: functional; conditions: read-out: Activity
assay metric: growth at 10 µM (%)
Write it as a number; the unit % goes unstated.

Reference set, count: 3
CC(=O)c1c(C)n(CCCCl)c2c1c(-c1ccc3c(c1)OCO3)nc1ccccc12 :: 96.7
CC(=O)c1c(C)[nH]c2c1c(-c1cc(Cl)cc(Cl)c1O)nc1ccccc12 :: 79.9
CC(=O)c1c(C)[nH]c2c1c(-c1cc3c(cc1Br)OCO3)nc1ccccc12 :: 91.5

Query compound follows.
Value lookup for growth at 10 µM; key = CC(=O)c1c(C)[nH]c2c1c(-c1ccc3c(c1)OCO3)nc1ccccc12
67.5

Numbers sourced from ChEMBL document CHEMBL5620394.
